molecular target: PTGS-SP p19 of TBSV (Tomato bushy stunt virus, UniProt P11690); assay: Surface plasmon resonance (Biacore) inhibition of siRNA binding to p19; details: read-out: Binding inhibition rate (%) Biacore p19 25 ppm
Sequence (P11690 whole entry): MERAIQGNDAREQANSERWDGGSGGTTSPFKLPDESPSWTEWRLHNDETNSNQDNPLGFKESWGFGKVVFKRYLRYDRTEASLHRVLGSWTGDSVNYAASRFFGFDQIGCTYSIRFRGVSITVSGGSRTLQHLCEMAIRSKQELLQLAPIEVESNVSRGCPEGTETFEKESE
Label rule, in plain words: inhibition at 25 ppm of 90% and up is MET, under 90% is NOT MET.

O=C1C=CC(=O)C=C1: MET
O=C1C=CC(=O)C1: MET
O=C1C=CC(=O)c2c(O)ccc(O)c21: MET

Form field: inhibition at 25 ppm at least 90%? Entry: CC1(C)C(=O)C(C)(C)C1=O
NOT MET

Form field: inhibition at 25 ppm at least 90%? Entry: O=C1C=C(O)C(=O)C=C1O
MET

Form field: inhibition at 25 ppm at least 90%? Entry: CCOC(=O)C1CCCC1=O (stereo not shown)
NOT MET

====

molecular target: TAV-2b (Tomato aspermy virus); assay: Surface plasmon resonance (Biacore) inhibition of siRNA binding to TAV-2b; settings: read-out: Binding inhibition rate (%) Biacore TAV2b 25 ppm
Sequence (Q8UYT3 whole entry): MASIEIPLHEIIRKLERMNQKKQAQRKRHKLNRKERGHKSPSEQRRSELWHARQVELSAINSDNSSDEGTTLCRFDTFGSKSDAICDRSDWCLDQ
Label rule, in plain words: inhibition at 25 ppm of 50% and up is y, under 50% is n.

Solved cases below.
O=C1CCc2ccccc2C1=O: y
CC1(C)C(=O)C(C)(C)C1=O: n
CCOC(=O)C1CCCC1=O (stereo not shown): y
CC(=O)C1CCCC1=O (stereo not shown): y
O=C1C=CC(=O)C=C1: y
O=C1C=C(O)C(=O)C=C1O: y
COC1=C(OC)C(=O)C(C)=CC1=O: n
O=c1c(O)c(O)c(=O)c(=O)c1=O: y
O=C1CCSC1: n
COc1c(OC)c(=O)c1=O: y

Form field: inhibition at 25 ppm at least 50%? Entry: O=C1CCC(=O)CC1
n

Form field: inhibition at 25 ppm at least 50%? Entry: O=C1C=CC(=O)c2c(O)ccc(O)c21
y

====

molecular target: UniProt:Q8UYT3; assay: Surface plasmon resonance (Biacore) inhibition of siRNA binding to TAV-2b; settings: read-out: Binding inhibition rate (%) Biacore TAV2b 25 ppm
Listed here are compounds together with their documented inhibition at 25 ppm.

Use the examples below as a reference point.
Cc1occc(=O)c1O: 50%
O=C1C=CC(=O)C1: 100%

Next:
NC1=CC(=O)CCC1 has a reported inhibition at 25 ppm of 80%

====

biological target: UniProt:P11690; test: Surface plasmon resonance (Biacore) inhibition of siRNA binding to p19; settings: read-out: Binding inhibition rate (%) Biacore p19 25 ppm
Measurement name: inhibition at 25 ppm
Quick note: unit goes after the number.

Cc1occc(=O)c1O [Compound 19]: 90%
O=c1c(O)c(O)c(=O)c(=O)c1=O [Compound 17]: 100%
O=C1CCCCC1 [Compound 10]: 70%

O=C1CCSC1 [Compound 9] has a reported inhibition at 25 ppm of 95%

CC(=O)C1CCCC1=O (stereo not shown) [Compound 4] has a reported inhibition at 25 ppm of 20%

O=C1CCC(=O)CC1 [Compound 11] has a reported inhibition at 25 ppm of 70%

NC1=CC(=O)CCC1 [Compound 18] has a reported inhibition at 25 ppm of 90%

COc1c(OC)c(=O)c1=O [Compound 1] has a reported inhibition at 25 ppm of 80%

O=C1CCc2ccccc2C1=O [Compound 6] has a reported inhibition at 25 ppm of 100%

COC1=C(OC)C(=O)C(C)=CC1=O [Compound 16] has a reported inhibition at 25 ppm of 80%
